- STUDY_SYSTEM: Histone deacetylase 2 (Homo sapiens, UniProt Q92769)
- Sequence (Q92769 whole entry): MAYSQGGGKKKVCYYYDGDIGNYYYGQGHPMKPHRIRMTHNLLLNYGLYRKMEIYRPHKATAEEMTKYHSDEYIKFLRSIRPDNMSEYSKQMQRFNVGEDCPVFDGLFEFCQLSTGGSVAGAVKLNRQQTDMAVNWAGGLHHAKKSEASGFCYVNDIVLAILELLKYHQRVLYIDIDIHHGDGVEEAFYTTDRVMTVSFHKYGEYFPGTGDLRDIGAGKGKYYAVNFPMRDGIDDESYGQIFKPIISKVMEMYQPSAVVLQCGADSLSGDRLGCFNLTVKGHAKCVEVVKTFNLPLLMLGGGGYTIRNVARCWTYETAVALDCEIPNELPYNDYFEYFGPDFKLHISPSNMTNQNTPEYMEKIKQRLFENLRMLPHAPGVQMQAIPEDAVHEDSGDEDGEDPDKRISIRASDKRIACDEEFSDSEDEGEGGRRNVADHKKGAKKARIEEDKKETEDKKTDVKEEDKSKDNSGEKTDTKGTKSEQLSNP
PROPERTY_MEASURED: IC50 (µM)
Write the value in µM as a bare number.

Challenge: Tell me the measured IC50 of Nc1ccccc1NC(=O)CCCCCCC(=O)Nc1ccccc1N , please.
Response given: 4.8

----------
- STUDY_SYSTEM: NAD-dependent protein deacetylase sirtuin-2 (Homo sapiens)
- Sequence (Q8IXJ6 whole entry): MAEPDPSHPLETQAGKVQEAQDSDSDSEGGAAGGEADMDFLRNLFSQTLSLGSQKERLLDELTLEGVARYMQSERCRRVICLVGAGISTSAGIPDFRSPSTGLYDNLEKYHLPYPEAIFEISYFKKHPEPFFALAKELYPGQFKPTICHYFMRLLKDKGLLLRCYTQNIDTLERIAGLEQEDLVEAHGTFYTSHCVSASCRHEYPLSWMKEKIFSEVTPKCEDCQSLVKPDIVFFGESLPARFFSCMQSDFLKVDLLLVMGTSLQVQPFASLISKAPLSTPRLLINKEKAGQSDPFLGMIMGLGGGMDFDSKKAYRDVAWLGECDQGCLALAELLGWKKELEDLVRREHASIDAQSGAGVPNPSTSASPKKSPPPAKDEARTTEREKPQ
- ASSAY_INFO: Inhibition of human SIRT-2
PROPERTY_MEASURED: pIC50
Remember, pIC50 is on a log scale: it is -log10 of the molar concentration.

Challenge: Tell me the measured pIC50 of CC(C)=CCC/C(C)=C/C[C@@H]1C[C@@]2(CC=C(C)C)C(=O)[C@](CC=C(C)C)(C(=O)C(C(=O)c3ccc(O)c(O)c3)=C2O)[C@@]1(C)CCC=C(C)C , please.
Response given: 4.66
